Origin of values: PubChem BioAssay AID1963424

Measured viability, T/C accompanies every entry in the list below.
System: 327498-153-R-J2-PDC complex spheroid growth, % test/control;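 also: spheroids exposed to compound for 7 days after 3 days of growth; 100% = DMSO vehicle control wells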
Measurement protocol: Anticancer human tumor 327498-153-R-J2-PDC patient-derived uterine carcinosarcoma cell line growth inhibition [Asc]
Measurement context: second compound 0.949 µM; first compound 10 µM; stronger effect = lower value
Give just the numeric value; % need not be written.

Recorded viability, T/C, per entry:
{"Compound": "C=CC(=O)N1CCN(c2nc(=O)n(-c3c(C)ccnc3C(C)C)c3nc(-c4c(O)cccc4F)c(F)cc23)C(C)C1 (centres undefined) + CCN1C(C(=O)NC23CCC(C(=O)O)(CC2)CC3)C(c2cccc(Cl)c2F)C2(C(=O)Nc3cc(Cl)ccc32)C12CCCCC2", "Recorded metric": "viability, T/C", "Measured result": 4.58}
{"Compound": "C=C(F)C(=O)N1CCN(c2nc(OCC3CCCN3C)nc3c2CCN(c2cccc4cccc(Cl)c24)C3)CC1CC#N (centres undefined) + CCN1C(C(=O)NC23CCC(C(=O)O)(CC2)CC3)C(c2cccc(Cl)c2F)C2(C(=O)Nc3cc(Cl)ccc32)C12CCCCC2", "Recorded metric": "viability, T/C", "Measured result": 0.12}
{"Compound": "O=C(c1cc(Cc2n[nH]c(=O)c3ccccc23)ccc1F)N1CCN(C(=O)C2CC2)CC1 + CCN1C(C(=O)NC23CCC(C(=O)O)(CC2)CC3)C(c2cccc(Cl)c2F)C2(C(=O)Nc3cc(Cl)ccc32)C12CCCCC2", "Recorded metric": "viability, T/C", "Measured result": 2.8}

Now consider a different compound.
What measured viability, T/C goes with C#Cc1c(F)ccc2cc(O)cc(-c3ncc4c(N5CC6CCC(C5)N6)nc(OCC56CCCN5CC(F)C6)nc4c3F)c12 (centres undefined) + CCN1C(C(=O)NC23CCC(C(=O)O)(CC2)CC3)C(c2cccc(Cl)c2F)C2(C(=O)Nc3cc(Cl)ccc32)C12CCCCC2 ?
1.84
